Target: N-arachidonyl glycine receptor (Homo sapiens, UniProt Q14330)
Sequence (Q14330 whole entry): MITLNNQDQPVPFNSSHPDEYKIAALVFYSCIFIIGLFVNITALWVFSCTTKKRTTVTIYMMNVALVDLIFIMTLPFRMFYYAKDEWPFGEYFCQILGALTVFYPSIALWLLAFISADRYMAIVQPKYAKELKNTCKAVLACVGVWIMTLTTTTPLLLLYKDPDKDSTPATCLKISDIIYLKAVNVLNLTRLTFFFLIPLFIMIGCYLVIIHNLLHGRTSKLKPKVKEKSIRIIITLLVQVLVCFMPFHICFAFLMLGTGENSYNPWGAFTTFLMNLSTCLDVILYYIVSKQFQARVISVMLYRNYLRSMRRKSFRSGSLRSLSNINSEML
Test: Agonist activity at human GPR18 expressed in CHO cells assessed as activation by measuring beta-arrestin2 recruitment incubated for 90 mins by luminescence based assay
Format: functional, cell-based
Hi there, I'd appreciate the recorded EC50 for every entry that follows.

Look over these answered cases.
INSERT INTO results (structure_string, endpoint_result) VALUES
  ('CCC#CCn1c(NCCc2c[nH]c3ccccc23)nc2c1c(=O)n(C)c(=O)n2C', '254 nM'),
  ('Cn1c(=O)c2c(nc(NCCc3c[nH]c4ccccc34)n2Cc2ccc(Cl)c(Cl)c2)n(C)c1=O', '74 nM'),
  ('Cn1c(=O)c2c(nc(NCCc3c[nH]c4ccccc34)n2Cc2ccccc2F)n(C)c1=O', '137 nM');

Please supply EC50 for each of the following items, keeping them in order.
1. CCCNC(=O)c1ccc(Cn2c(NCCc3c[nH]c4ccccc34)nc3c2c(=O)n(C)c(=O)n3C)cc1
2. CCCn1c(NCCc2c[nH]c3ccccc23)nc2c1c(=O)n(C)c(=O)n2C
3. Cn1c(=O)c2c(nc(NCCc3c[nH]c4ccccc34)n2Cc2ccc(Cl)cc2)n(Cc2ccccc2)c1=O
4. Cn1c(=O)[nH]c2nc(NCCc3c[nH]c4ccccc34)n(Cc3ccc(Cl)cc3)c2c1=O
5. Cn1c(=O)c2c(nc(NCCc3c[nH]c4ccccc34)n2Cc2ccc(F)c(Cl)c2)n(C)c1=O

Out:
1. 1410 nM
2. 196 nM
3. > 10000 nM
4. 206 nM
5. 193 nM

In: Note down EC50 recorded for Cn1c(=O)c2c(nc(NCCc3c[nH]c4ccccc34)n2C)n(C)c1=O
Out: 902 nM
